Each recorded value in this set is attributed to paper PMC8645223.

target: SARS-CoV-2 Mpro (Severe acute respiratory syndrome coronavirus 2); test: sandwich-like FP screening assay; format: biochemical; settings: presence of 1 mM DTT

# molecule, IC50 (µM)
records = [
    ("Oc1cc(O)cc(Oc2c(O)cc(O)c3c2Oc2c(O)cc(Oc4c(O)cc(Oc5c(O)cc(O)c6c5Oc5c(O)cc(O)cc5O6)cc4O)cc2O3)c1 [dieckol]", 4.5),
]

----------
biological target: SARS-CoV-2 Mpro (Severe acute respiratory syndrome coronavirus 2, UniProt P0DTD1)
pKd: −log10 of the molar value.
recorded.metric: pKd

# molecule, endpoint.result
data = [
    ("Oc1cc(O)cc(Oc2c(O)cc(O)c3c2Oc2c(O)cc(Oc4c(O)cc(Oc5c(O)cc(O)c6c5Oc5c(O)cc(O)cc5O6)cc4O)cc2O3)c1 [dieckol]", 6.66),
]

----------
target: SARS-CoV-2 Mpro (Severe acute respiratory syndrome coronavirus 2, UniProt P0DTD1); assay: sandwich-like FP screening assay; format: biochemical; conditions: absence of DTT
pIC50: −log10 of the molar value.

# molecule, pIC50
data = [
    ("Oc1cc(O)cc(Oc2c(O)cc(O)c3c2Oc2c(O)cc(Oc4c(O)cc(Oc5c(O)cc(O)c6c5Oc5c(O)cc(O)cc5O6)cc4O)cc2O3)c1 [dieckol]", 5.54),
]

----------
target: SARS-CoV-2 Mpro (Severe acute respiratory syndrome coronavirus 2, UniProt P0DTD1)
pKi: −log10 of the molar value.
recorded.metric: pKi

# query.smiles, endpoint.result
data = [
    ("Oc1cc(O)cc(Oc2c(O)cc(O)c3c2Oc2c(O)cc(Oc4c(O)cc(Oc5c(O)cc(O)c6c5Oc5c(O)cc(O)cc5O6)cc4O)cc2O3)c1", 5.48),
]
